Consider the following compounds; for each one, report its EC50.
- Tested on: monkey VERO cells
- ASSAY NOTES: VERO cell cytotoxicity assay (luminescent ATP cell viability, 72 hour exposure)
- Format: cell-based
- ASSAY SETUP: Primates; VERO cells, 72 hour exposure, ATP luminescence; read-out: EC50 VERO cells

Solved entries:
SMILES RECORD | EC50
CC(C)(C)c1cc(N)c(SCCNC(=N)N)c(NC(=O)c2cc(OCCNC(=N)N)cc(C(=O)Nc3cc(C(C)(C)C)cc(N)c3SCCNC(=N)N)c2)c1 | > 300 µg/mL
N=C(N)NCCCCC(=O)Nc1cccc(NC(=O)c2cc(C(=O)Nc3cccc(NC(=O)CCCCNC(=N)N)c3SCCN)ncn2)c1SCCN | > 100 µg/mL
CC(C)(C)c1cc(NC(=O)CCCCNC(=N)N)c(SCCN)c(NC(=O)Nc2cc(C(C)(C)C)cc(NC(=O)CCCCNC(=N)N)c2SCCN)c1 | > 300 µg/mL

Switching to the query record.
Query block: Look up EC50 for this compound: CC(C)(C)c1cc(N)c(SCCNC(=N)N)c(NC(=O)c2cc(C(=O)Nc3cc(C(C)(C)C)cc(N)c3SCCNC(=N)N)c(OCCNC(=N)N)cc2OCCNC(=N)N)c1
Result block: > 300 µg/mL
